Molecular target: Free fatty acid receptor 4 (Homo sapiens)
Sequence (Q5NUL3 whole entry): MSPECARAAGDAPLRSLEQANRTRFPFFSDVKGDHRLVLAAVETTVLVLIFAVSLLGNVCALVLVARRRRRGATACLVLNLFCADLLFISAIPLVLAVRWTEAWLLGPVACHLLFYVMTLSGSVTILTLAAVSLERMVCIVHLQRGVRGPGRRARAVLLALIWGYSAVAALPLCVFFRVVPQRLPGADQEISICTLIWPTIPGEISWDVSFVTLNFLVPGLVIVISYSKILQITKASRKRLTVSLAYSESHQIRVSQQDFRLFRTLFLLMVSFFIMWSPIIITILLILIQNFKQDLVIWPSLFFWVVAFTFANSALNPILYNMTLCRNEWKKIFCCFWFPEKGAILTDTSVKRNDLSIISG
Assay: Agonist activity at GPR120 (unknown origin) expressed in CHO cells by FLIPR calcium flux assay in presence of 0.1% bovine serum albumin
pEC50: −log10 of the molar value.
Quick reference: pEC50 of the listed items.

O=C(O)CCc1ccc(OCc2nc(-c3ccc(Cl)cc3)no2)cc1 :: < 5.00
Cc1ccc(-c2noc(COc3ccc(CCC(=O)O)cc3)n2)cc1 :: < 5.00

# input for lookup
# lookup: Cc1oc(-c2ccccc2)nc1COc1ccc(CCC(=O)O)cc1 on Free fatty acid receptor 4 (Homo sapiens), pEC50 = < 5.00

---

Molecular target: CYP2C9 (Homo sapiens)
Sequence (P11712 whole entry): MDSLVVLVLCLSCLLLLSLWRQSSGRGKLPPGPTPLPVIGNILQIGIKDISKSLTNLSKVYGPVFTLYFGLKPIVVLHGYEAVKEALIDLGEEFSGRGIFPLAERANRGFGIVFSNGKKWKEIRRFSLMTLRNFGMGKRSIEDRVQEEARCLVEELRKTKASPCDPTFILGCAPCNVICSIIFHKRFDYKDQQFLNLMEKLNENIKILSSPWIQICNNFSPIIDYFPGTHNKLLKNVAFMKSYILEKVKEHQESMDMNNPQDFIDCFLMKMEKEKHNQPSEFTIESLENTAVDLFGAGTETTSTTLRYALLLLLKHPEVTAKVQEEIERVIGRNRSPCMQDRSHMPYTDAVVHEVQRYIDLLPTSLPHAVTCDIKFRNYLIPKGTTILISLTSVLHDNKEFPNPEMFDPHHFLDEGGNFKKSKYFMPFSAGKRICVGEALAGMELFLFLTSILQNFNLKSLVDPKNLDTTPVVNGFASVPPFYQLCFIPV
Test: Inhibition of CYP2C9 (unknown origin) at 120 uM by luminescent readout-based method
Assay type: ADME
Property: inhibition at 120 µM

Entry OC(Cn1cncn1)(Cn1cncn1)c1ccc(F)cc1F [FLUCONAZOLE] ; inhibition at 120 µM = 89.1%
